- experimental.system: Cathepsin B (Homo sapiens)
- protocol.details: Non-competitive inhibition of recombinant human cathepsin B exopeptidase activity assessed as inhibitory constant for enzyme-inhibitor complex using Abz-Gly-Ile-Val-Arg-Ala-Lys(Dnp)-OH as substrate in presence of pH 5 acetate buffer by fluorescence assay
experimental.endpoint: Ki (µM)

// solved cases for Ki follow
{"columns": ["smiles.code", "experimental.endpoint", "measured"],
 "data": [
  ["N#CCNC(=O)c1cc([N+](=O)[O-])ccc1O", "Ki", 168],
  ["O=C(O)c1ccc2c([N+](=O)[O-])ccc(O)c2n1", "Ki", 240],
  ["CN(CC#N)C(=O)c1cc([N+](=O)[O-])c2cccnc2c1O", "Ki", 121],
  ["O=C(c1cc([N+](=O)[O-])c2cccnc2c1O)N1CCCCC1", "Ki", 364]
]}

(I) CC1CCN(C(=O)c2cc([N+](=O)[O-])c3cccnc3c2O)CC1
(II) O=[N+]([O-])c1ccc(O)c(CN2CCOCC2)c1
Task item: Please indicate which item has the smaller measured Ki: I versus II Indicate your choice by writing its label.
Reply: II

* * *

- experimental.system: Procathepsin L (Homo sapiens, UniProt P07711)
- Sequence (P07711 whole entry): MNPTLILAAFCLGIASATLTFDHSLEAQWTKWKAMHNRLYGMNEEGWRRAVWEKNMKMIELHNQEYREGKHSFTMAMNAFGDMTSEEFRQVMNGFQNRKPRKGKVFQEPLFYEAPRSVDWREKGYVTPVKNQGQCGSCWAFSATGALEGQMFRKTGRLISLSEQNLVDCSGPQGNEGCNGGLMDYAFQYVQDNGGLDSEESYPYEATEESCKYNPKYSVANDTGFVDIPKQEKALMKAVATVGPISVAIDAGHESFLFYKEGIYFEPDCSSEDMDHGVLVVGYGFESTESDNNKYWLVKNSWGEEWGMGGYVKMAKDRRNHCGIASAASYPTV
- protocol.details: Non-competitive inhibition of recombinant human cathepsin L expressed in Escherichia coli assessed as inhibitory constant for enzyme-substrate-inhibitor complex using Z-FR-AMC as substrate in presence of pH 6 phosphate buffer by fluorescence assay
experimental.endpoint: pKi
# reply with the number alone; pKi is -log10 of concentration in mol/L

Task item: What pKi value was documented for this molecule, `N#CCNC(=O)c1cc([N+](=O)[O-])c2cccnc2c1O` ?
Reply: 3.81

* * *

- experimental.system: Procathepsin L (Homo sapiens, UniProt P07711)
- protocol.details: Competitive inhibition of recombinant human cathepsin L expressed in Escherichia coli assessed as inhibitory constant for enzyme-inhibitor complex using Z-FR-AMC as substrate in presence of pH 6 phosphate buffer by fluorescence assay
pKi: −log10 of the molar value.
experimental.endpoint: pKi

(A) N#CC1(NC(=O)c2cc([N+](=O)[O-])c3cccnc3c2O)CC1
(B) O=C(NCC1CCN(c2nc3ccccc3o2)CC1)c1cc([N+](=O)[O-])c2cccnc2c1O
(C) Cc1ccc2c([N+](=O)[O-])ccc(O)c2n1
Task item: Please arrange the 3 molecules above from largest to smallest pKi value. Field: ranking. Enter the labels in the order requested.
Reply: B, C, A
(B: 5.30, C: 3.91, A: 3.71)

* * *

- experimental.system: Cathepsin B (Homo sapiens, UniProt P07858)
- protocol.details: Uncompetitive inhibition of recombinant human cathepsin B endopeptidase activity assessed as inhibitory constant for enzyme-substrate-inhibitor complex using Z-Arg-Arg-AMC as substrate in presence of pH 6 phosphate buffer by fluorescence assay
experimental.endpoint: Ki (µM)

{"columns": ["smiles.code", "Ki, µM"],
 "data": [
  ["CC(=O)c1ccc(-c2occc2-c2ccc([N+](=O)[O-])c3cccnc23)cc1", 46]
]}

(A) O=C(NCC1CCN(c2nc3ccccc3o2)CC1)c1cc([N+](=O)[O-])c2cccnc2c1O
(B) CC(=O)c1ccc(-c2cc(-c3ccc([N+](=O)[O-])c4cccnc34)c(-c3ccc(C(C)=O)cc3)o2)cc1
Task item: Please indicate which item has the smaller measured Ki: A versus B Indicate your choice by writing its label.
Reply: A

* * *

- experimental.system: UniProt P09668
- Sequence (P09668 116-335 limits assumed, other chains not shown): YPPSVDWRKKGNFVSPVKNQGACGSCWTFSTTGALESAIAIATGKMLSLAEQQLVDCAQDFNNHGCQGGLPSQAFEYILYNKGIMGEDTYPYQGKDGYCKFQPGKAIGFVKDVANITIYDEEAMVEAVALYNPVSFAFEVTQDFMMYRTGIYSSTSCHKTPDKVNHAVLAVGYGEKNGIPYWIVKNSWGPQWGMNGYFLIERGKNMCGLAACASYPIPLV
- protocol.details: Non-competitive inhibition of human liver cathepsin H assessed as inhibitory constant for enzyme-inhibitor complex using R-AMC as substrate in presence of pH 6 phosphate buffer by fluorescence assay
experimental.endpoint: Ki (µM)

(a) Cc1ccc2c([N+](=O)[O-])ccc(O)c2n1
(b) N#CC1(NC(=O)c2cc([N+](=O)[O-])c3cccnc3c2O)CC1
Task item: Parameter check: reported Ki is higher for which label, a or b ? Indicate your choice by writing its label.
Reply: b

* * *

- experimental.system: UniProtKB P07858
- protocol.details: Inhibition of recombinant human cathepsin B endopeptidase activity assessed as inhibitory constant for enzyme-inhibitor complex using Z-Arg-Arg-AMC as substrate in presence of pH 6 phosphate buffer by fluorescence assay
experimental.endpoint: Ki (µM)
Express the result in µM but write the number alone.

Task item: What Ki value was documented for this molecule, `O=C(NCC1CCN(c2nc3ccccc3o2)CC1)c1cc([N+](=O)[O-])c2cccnc2c1O` ?
Reply: 8.2

* * *

- experimental.system: UniProt P07858
- protocol.details: Mixed inhibition of recombinant human cathepsin B endopeptidase activity assessed as inhibitory constant for enzyme-substrate-inhibitor complex using Z-Arg-Arg-AMC as substrate in presence of pH 6 phosphate buffer by fluorescence assay
pKi: −log10 of the molar value.
experimental.endpoint: pKi

// solved cases for pKi follow
{"columns": ["smiles.code", "pKi"],
 "data": [
  ["Cc1ccc2c([N+](=O)[O-])ccc(O)c2n1", 4.00],
  ["CC1CCN(C(=O)c2cc([N+](=O)[O-])c3cccnc3c2O)CC1", 4.03]
]}

(1) COCCN(CC1CCN(Cc2nc3ccccc3s2)CC1)C(=O)c1cc([N+](=O)[O-])c2cccnc2c1O
(2) CN(CC#N)C(=O)c1ccc2c([N+](=O)[O-])cc([N+](=O)[O-])c(O)c2n1
(3) N#CC1(NC(=O)c2ccc3c([N+](=O)[O-])ccc(O)c3n2)CC1
Task item: In this exercise, place the 3 compounds in ascending sequence of their recorded pKi. Field: ranking. Enter the labels in the order requested.
Reply: 2, 3, 1
(2: 3.91, 3: 4.18, 1: 4.39)

(a) O=C(c1cc([N+](=O)[O-])c2cccnc2c1O)N1CCCCC1
(b) N#Cc1ccc2c([N+](=O)[O-])ccc(O)c2n1
Task item: Parameter check: reported pKi is higher for which label, a or b ? Indicate your choice by writing its label.
Reply: b
(b: 4.17, a: 3.77)

(A) CN(CC#N)C(=O)c1ccc2c([N+](=O)[O-])ccc(O)c2n1
(B) N#CCN(Cc1ccccc1)C(=O)c1cc([N+](=O)[O-])c2cccnc2c1O
(C) N#CCNC(=O)c1ccc2c([N+](=O)[O-])ccc(O)c2n1
Task item: In this exercise, place the 3 compounds in ascending sequence of their recorded pKi. Field: ranking. Enter the labels in the order requested.
Reply: A, C, B
(A: 3.58, C: 3.94, B: 4.19)

* * *

- experimental.system: Cathepsin B (Homo sapiens, UniProt P07858)
- protocol.details: Non-competitive inhibition of recombinant human cathepsin B exopeptidase activity assessed as inhibitory constant for enzyme-inhibitor complex using Abz-Gly-Ile-Val-Arg-Ala-Lys(Dnp)-OH as substrate in presence of pH 5 acetate buffer by fluorescence assay
pKi: −log10 of the molar value.
experimental.endpoint: pKi

{"columns": ["smiles.code", "measured"],
 "data": [
  ["N#CCN(Cc1ccccc1)C(=O)c1cc([N+](=O)[O-])ccc1O", 4.02],
  ["Cn1cccc1-c1ccc([N+](=O)[O-])c2cccnc12", 3.65],
  ["N#CC1(NC(=O)c2cc([N+](=O)[O-])c3cccnc3c2O)CC1", 3.73],
  ["N#CCNC(=O)c1ccc([N+](=O)[O-])c2cccnc12", 3.72],
  ["N#Cc1ccc2c([N+](=O)[O-])cc([N+](=O)[O-])c(O)c2n1", 3.72]
]}

(I) CN(CC#N)C(=O)c1ccc2c([N+](=O)[O-])ccc(O)c2n1
(II) O=C(c1cc([N+](=O)[O-])c2cccnc2c1O)N1CCOCC1
(III) Nc1ccc2c([N+](=O)[O-])ccc(O)c2n1
Task item: In this exercise, place the 3 molecules in ascending sequence of their recorded pKi. Field: ranking. Enter the labels in the order requested.
Reply: III, I, II
(III: 3.48, I: 3.69, II: 3.91)

* * *

- experimental.system: Cathepsin B (Homo sapiens)
- protocol.details: Non-competitive inhibition of recombinant human cathepsin B exopeptidase activity assessed as inhibitory constant for enzyme-inhibitor complex using Abz-Gly-Ile-Val-Arg-Ala-Lys(Dnp)-OH as substrate in presence of pH 5 acetate buffer by fluorescence assay
pKi: −log10 of the molar value.
experimental.endpoint: pKi

{"columns": ["smiles.code", "pKi"],
 "data": [
  ["COCCN(CC1CCN(Cc2nc3ccccc3s2)CC1)C(=O)c1cc([N+](=O)[O-])c2cccnc2c1O", 3.74],
  ["N#CCNC(=O)c1ccc2c([N+](=O)[O-])ccc(O)c2n1", 3.72],
  ["N#Cc1ccc2c([N+](=O)[O-])ccc(O)c2n1", 3.67],
  ["O=C(c1cc([N+](=O)[O-])ccc1O)N1CCOCC1", 3.75],
  ["N#CC1(NC(=O)c2ccc3c([N+](=O)[O-])ccc(O)c3n2)CC1", 3.81]
]}
